Reference for the values: patent US11401271B2

- Test system: Spodoptera exigua
- assay-remarks: whole plant or invertebrate
- Format: in vivo
- experimental-setup: 500 ppm; 2nd-instar larvae; leaf immersion feeding; 24 hours
- Text: (2) Insecticidal Activity on 2nd-Instar Larvae of Spodoptera exigua. Spodoptera exigua is a lepidoptera pest with a chewing mouthpart and is a common vegetable pest. The 2nd-instar larvae of Spodoptera exigua were used as test objects and tested by using a leaf immersion feeding method. […]
experimental-endpoint: Spodoptera exigua Mortality (%) 500 ppm
Kindly provide the numeric value in % only, without the unit symbol.

Request: For the compound shown here, N#CCC1(C(F)(F)F)Nc2c([S+]([O-])C(F)(F)F)c(C#N)nn2-c2ncc(C(F)(F)F)cc21 (stereo not shown) , give the reported Spodoptera exigua Mortality (%) 500 ppm.
Result: 91
